target: Protein mono-ADP-ribosyltransferase PARP14 (Homo sapiens, UniProt Q460N5); test: Inhibition of recombinant human His6-tagged PARP14 catalytic/WWE domain (1459 to 1801 residues) expressed in Escherichia coli BL21(DE3) preincubated for 15 mins followed by biotinylated NAD+ addition by chemiluminescence assay
Sequence (Q460N5 whole entry, the tested form may be a part): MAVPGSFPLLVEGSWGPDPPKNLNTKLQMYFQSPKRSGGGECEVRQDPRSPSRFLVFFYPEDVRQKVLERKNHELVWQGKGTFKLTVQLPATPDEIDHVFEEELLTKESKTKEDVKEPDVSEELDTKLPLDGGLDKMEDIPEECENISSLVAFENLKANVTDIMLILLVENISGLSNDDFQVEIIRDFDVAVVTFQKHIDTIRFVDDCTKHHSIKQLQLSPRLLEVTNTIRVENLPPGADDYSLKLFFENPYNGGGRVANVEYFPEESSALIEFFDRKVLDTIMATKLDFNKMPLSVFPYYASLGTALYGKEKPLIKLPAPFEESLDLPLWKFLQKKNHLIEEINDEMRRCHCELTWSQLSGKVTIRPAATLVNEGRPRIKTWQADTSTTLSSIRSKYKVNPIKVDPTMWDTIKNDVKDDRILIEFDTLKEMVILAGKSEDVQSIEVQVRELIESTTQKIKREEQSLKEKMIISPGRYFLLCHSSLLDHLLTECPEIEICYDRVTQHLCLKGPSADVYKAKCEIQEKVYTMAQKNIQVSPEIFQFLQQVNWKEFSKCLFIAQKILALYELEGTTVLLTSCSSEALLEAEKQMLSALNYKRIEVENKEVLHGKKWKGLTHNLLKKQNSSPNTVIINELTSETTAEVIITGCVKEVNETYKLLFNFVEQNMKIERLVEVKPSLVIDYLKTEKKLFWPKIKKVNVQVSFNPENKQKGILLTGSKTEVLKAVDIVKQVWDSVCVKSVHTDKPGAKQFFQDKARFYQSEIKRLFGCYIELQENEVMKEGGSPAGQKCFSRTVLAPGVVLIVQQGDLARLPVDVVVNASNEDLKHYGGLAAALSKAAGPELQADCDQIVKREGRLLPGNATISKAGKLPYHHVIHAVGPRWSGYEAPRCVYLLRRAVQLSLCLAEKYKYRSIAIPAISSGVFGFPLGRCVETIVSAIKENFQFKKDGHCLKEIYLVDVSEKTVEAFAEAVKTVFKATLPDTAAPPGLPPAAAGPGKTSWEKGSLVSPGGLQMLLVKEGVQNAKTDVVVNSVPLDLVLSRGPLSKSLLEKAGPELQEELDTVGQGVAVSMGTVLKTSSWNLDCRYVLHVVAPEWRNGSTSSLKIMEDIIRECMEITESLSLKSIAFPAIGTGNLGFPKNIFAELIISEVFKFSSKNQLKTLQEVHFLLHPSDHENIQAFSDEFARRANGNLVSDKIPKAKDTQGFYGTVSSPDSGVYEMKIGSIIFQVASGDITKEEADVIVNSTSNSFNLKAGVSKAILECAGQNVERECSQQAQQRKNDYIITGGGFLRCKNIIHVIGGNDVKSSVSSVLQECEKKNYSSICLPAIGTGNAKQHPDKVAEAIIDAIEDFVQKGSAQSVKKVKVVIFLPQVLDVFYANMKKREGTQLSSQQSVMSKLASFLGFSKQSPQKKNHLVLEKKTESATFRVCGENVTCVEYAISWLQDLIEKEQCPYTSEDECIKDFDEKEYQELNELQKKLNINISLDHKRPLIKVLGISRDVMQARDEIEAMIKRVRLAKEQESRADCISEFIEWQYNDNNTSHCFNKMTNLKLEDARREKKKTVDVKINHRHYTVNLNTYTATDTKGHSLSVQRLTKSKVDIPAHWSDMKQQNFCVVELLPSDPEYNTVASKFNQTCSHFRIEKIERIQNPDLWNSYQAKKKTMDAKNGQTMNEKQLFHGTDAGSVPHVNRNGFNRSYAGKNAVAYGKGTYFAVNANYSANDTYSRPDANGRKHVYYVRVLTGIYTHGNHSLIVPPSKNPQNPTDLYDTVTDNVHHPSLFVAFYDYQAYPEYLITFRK
readout type: pIC50
Please report pIC50 as the negative decimal logarithm of the molar concentration, giving only the number.

So for NC(=O)c1cccc(NC(=O)/C=C\C(=O)N2CCCC(Oc3ccccc3)C2)c1 (stereo unspecified) , the logged pIC50 turned out to be 5.99
